Biological target: T1, human FcγRIIA on cells (human, UniProt P12318 34-317)
T1 construct: whole, on cells; also called hFcγRIIA; FcγRIIA^+ve CHO
T1 sequence (looked up): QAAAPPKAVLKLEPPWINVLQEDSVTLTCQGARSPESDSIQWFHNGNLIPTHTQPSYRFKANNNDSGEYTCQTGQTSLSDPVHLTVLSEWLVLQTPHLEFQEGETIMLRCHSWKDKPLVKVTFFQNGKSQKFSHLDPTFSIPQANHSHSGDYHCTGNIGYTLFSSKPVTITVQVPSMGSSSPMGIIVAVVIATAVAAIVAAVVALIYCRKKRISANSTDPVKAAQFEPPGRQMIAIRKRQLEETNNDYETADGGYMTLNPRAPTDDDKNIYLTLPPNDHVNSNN
Experiment: binding to FcγRIIA-transfected CHO-k1 cells
endpoint-label: binding result

binder	test-result
5E12 (antibody, human IgG1, V domains shown, hFcγRIIB mAb, human IgG1 (WT); Only VH/VL tied to the clone; also called Antibody clone: 5E12) VH: EVQLLESGGGLVQPGGSLRLSCAASGFTFSSYGMHWVRQAPGKGLEWVAVISYDGINKDYADSMKGRFTISRDNSKNTLYLQMNSLRAEDTAVYYCARERKDAFDIWGQGTLVTVSS VL: QSVLTQPPSASGTPGQRVTISCTGSSSNIGAGYDVHWYQQLPGTAPKLLIYSNNQRPSGVPDRFSGSKSGTSASLAISGLRSEDEADYYCATWDDSLNGLVFGGGTKLTVLG	no binding
6G03 (antibody, human IgG1, V domains shown, hFcγRIIB mAb, human IgG1 (WT); Only VH/VL tied to the clone; also called Antibody clone: 6G03) VH: EVQLLESGGGLVQPGGSLRLSCAASGFTFGSYGMHWVRQAPGKGLEWVSGISWDSAIIDYAGSVKGRFTISRDNSKNTLYLQMNSLRAEDTAVYYCAKDEAAAGAFDIWGQGTLVTVSS VL: QSVLTQPPSASGTPGQRVTISCTGSSSNIGAGYDVHWYQQLPGTAPKLLIYGNTDRPSGVPDRFSGSKSGTSASLAISGLRSEDEADYYCAAWDDSLSGPVVFGGGTKLTVLG	no binding
